Reported pIC50 values for a set of molecules
Experimental target: LFA-1 binding to immobilized ICAM-1 (Homo sapiens, UniProt P05107+P20701)
Construct: made in house; host or cells: transfected 293 cells (LFA-1)
Sequence (P20701 26-1170): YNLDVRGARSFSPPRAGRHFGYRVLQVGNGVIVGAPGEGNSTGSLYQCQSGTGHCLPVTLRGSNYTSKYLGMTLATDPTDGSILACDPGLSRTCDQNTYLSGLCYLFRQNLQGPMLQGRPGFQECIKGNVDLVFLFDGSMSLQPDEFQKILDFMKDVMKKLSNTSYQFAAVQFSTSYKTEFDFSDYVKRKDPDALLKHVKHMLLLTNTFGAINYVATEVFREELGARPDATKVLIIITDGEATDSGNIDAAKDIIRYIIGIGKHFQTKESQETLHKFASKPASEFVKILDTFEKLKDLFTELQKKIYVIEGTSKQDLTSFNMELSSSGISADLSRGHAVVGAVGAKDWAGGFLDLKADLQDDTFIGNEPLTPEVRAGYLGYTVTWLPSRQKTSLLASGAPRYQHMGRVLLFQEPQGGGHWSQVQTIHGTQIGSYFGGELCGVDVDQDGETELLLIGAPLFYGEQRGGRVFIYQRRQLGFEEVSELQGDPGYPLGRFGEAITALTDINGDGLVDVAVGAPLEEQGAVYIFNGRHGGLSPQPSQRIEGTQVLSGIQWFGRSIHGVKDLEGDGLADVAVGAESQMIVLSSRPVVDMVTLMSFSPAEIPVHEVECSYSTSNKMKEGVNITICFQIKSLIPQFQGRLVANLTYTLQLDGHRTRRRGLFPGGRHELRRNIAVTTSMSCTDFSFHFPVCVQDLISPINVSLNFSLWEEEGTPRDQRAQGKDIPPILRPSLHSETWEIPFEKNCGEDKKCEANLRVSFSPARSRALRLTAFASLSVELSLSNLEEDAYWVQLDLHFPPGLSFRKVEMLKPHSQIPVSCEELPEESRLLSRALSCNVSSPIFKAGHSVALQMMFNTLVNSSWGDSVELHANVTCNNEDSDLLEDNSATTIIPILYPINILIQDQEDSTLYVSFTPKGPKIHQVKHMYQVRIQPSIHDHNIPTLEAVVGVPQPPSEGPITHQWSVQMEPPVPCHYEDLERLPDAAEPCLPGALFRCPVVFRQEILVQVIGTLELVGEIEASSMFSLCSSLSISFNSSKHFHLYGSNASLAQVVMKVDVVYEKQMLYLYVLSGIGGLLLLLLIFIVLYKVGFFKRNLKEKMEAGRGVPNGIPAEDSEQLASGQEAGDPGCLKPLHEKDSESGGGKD
Sequence (P05107 23-769): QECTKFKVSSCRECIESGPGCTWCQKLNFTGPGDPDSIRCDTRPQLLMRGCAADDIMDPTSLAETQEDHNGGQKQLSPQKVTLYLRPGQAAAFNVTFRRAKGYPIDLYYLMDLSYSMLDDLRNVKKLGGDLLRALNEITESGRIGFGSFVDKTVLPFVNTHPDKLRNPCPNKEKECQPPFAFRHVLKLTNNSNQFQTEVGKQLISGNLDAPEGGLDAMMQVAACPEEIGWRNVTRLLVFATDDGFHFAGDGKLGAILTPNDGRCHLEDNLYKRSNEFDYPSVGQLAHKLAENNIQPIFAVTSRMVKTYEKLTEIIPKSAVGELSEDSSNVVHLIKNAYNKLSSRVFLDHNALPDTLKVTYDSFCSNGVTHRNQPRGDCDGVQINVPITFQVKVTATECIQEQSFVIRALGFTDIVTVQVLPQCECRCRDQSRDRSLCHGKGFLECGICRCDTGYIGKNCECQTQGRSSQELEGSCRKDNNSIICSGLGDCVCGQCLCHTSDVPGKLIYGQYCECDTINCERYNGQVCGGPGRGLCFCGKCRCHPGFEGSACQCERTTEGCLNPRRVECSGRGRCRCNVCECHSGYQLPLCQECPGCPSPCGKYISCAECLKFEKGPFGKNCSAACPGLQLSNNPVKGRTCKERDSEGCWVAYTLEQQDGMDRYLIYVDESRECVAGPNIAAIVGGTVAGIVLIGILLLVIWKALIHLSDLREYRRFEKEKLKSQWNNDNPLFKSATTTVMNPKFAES
Test protocol: LFA-1/ICAM-1 protein-protein assay (solid-phase ELISA)
Condition: read-out: LFA-1/ICAM-1 Protein-Protein Assay IC50
pIC50 is defined as minus the log10 of a concentration measured in mol/L.

# count of solved cases: 2
Molecule	Experimental target	Observed property	Quantitative result
O=C(NCc1cccc2[nH]cnc12)c1ccc(C(=O)N[C@@H](CNC(=O)c2cccs2)C(=O)O)c(Cl)c1 [Example 322]	LFA-1 binding to immobilized ICAM-1 (Homo sapiens, UniProt P05107+P20701)	pIC50	8.07
O=C(NCc1ccc(C(=O)N[C@@H](CNC(=O)c2ccccc2)C(=O)O)c(Cl)c1)c1cnc2ccccc2c1 [Example 370]	LFA-1 binding to immobilized ICAM-1 (Homo sapiens, UniProt P05107+P20701)	pIC50	7.40

Reported pIC50 of CCCCS(=O)(=O)NC[C@H](NC(=O)c1ccc(C(=O)N[C@H](C)c2cccc3ccccc23)cc1Cl)C(=O)O [Example 361] : 7.38

Reported pIC50 of O=C1CC[C@@H](C(=O)NC[C@H](NC(=O)c2ccc(C(=O)NCc3cccc(O)c3)cc2Cl)C(=O)O)O1 [Example 96] : 8.51

Reported pIC50 of Cc1ccsc1C(=O)NC[C@H](NC(=O)c1ccc(C(=O)NCc2cccc(O)c2)cc1Cl)C(=O)O [Example 159] : 9.05

Reported pIC50 of Nc1cccc(C(=O)NC[C@H](NC(=O)c2ccc(C(=O)NCc3cccc(O)c3)cc2Cl)C(=O)O)c1 [Example 288] : 8.92

Reported pIC50 of O=C(CCc1ccccc1)c1ccc(C(=O)N[C@@H](CNC(=O)c2cccs2)C(=O)O)c(Cl)c1 [Example 378] : 8.01

Reported pIC50 of O=C(NCc1cccc(O)c1)c1ccc(C(=O)N[C@@H](CNC(=O)C2CCCC2)C(=O)O)c(Cl)c1 [Example 101] : 8.72

====

Tested on: cell-surface Mac-1 adhesion to immobilized fibrinogen (HL-60 cells)
Test protocol: Mac-1/Fibrinogen cell-based screening assay
Parameters: species or system human
Condition: Homo sapiens, HL-60, HL-60 cells; read-out: Mac-1/Fgn Cell based Assay IC50
Reported IC50 values for a set of molecules
The response must be a number in nM with no trailing unit.

# count of solved cases: 6
Molecule	Experimental target	Unit string	IC50
NC1(C(=O)NC[C@H](NC(=O)c2ccc(C(=O)NCc3cccc(O)c3)cc2Cl)C(=O)O)CCCCC1 [Example 284]	cell-surface Mac-1 adhesion to immobilized fibrinogen (HL-60 cells)	nM	198
Cc1cc(C(=O)N[C@H](C)c2cccc3ccccc23)cc(C)c1C(=O)N[C@@H](CNC(=O)c1cccs1)C(=O)O [Example 333]	cell-surface Mac-1 adhesion to immobilized fibrinogen (HL-60 cells)	nM	12
O=C(NCc1cccc(O)c1)c1ccc(C(=O)N[C@@H](CNC(=O)c2cccc(Cl)c2)C(=O)O)c(Cl)c1 [Example 123]	cell-surface Mac-1 adhesion to immobilized fibrinogen (HL-60 cells)	nM	20
N[C@H]1Cc2ccccc2CN(CC(=O)NC[C@H](NC(=O)c2ccc(C(=O)NCc3cccc(O)c3)cc2Cl)C(=O)O)C1=O [Example 295]	cell-surface Mac-1 adhesion to immobilized fibrinogen (HL-60 cells)	nM	89
Cc1cc(C(=O)NCc2cccc(O)c2)cc(Cl)c1C(=O)N[C@@H](CNC(=O)c1ccsc1)C(=O)O [Example 339]	cell-surface Mac-1 adhesion to immobilized fibrinogen (HL-60 cells)	nM	3.1
NS(=O)(=O)c1ccc(C(=O)NC[C@H](NC(=O)c2ccc(C(=O)NCc3cccc(O)c3)cc2Cl)C(=O)O)cc1 [Example 119]	cell-surface Mac-1 adhesion to immobilized fibrinogen (HL-60 cells)	nM	468

Reported IC50 of O=C(NCc1cccc(O)c1)c1ccc(C(=O)N[C@@H](CNC(=O)[C@@H]2C[C@@H](O)CN2)C(=O)O)c(Cl)c1 [Example 268] : 148

Data credit: patent US20040006236A1
